Test system: Kidney
EXPERIMENT SUMMARY: Toxicity in mouse assessed as effect on iron level in kidney per gram of organ at 0.4 mmol/kg, ip qd for 5 days
Format: organism-based
TEST CONTEXT: in vivo, 120 h
Reported Activity is given for each of the following compounds.
RECORDED METRIC: Activity

[[record]]
compound = "CC[C@H](C)[C@H](NC(=O)C1SC(C)(C)SC1C(=O)O)C(=O)O (stereo partly drawn)"
assay_target = "Kidney"
reported_measurement = "92.98 µg/g"

[[record]]
compound = "CC1(C)SC(C(=O)O)C(C(=O)N[C@@H](CC(N)=O)C(=O)O)S1 (stereo partly drawn)"
assay_target = "Kidney"
reported_measurement = "94.84 µg/g"

[[record]]
compound = "CC1(C)SC(C(=O)O)C(C(=O)O)S1 (stereo not drawn)"
assay_target = "Kidney"
reported_measurement = "95.1 µg/g"

